- Run description: xn = mol fraction of the nth substance listed
- Test parameters: 308.15 K; 101 kPa; x2 = 0.35
Parameter: viscosity (mPa·s)
Provide the reading as a plain figure in mPa·s.

Record CCCCCCCCO + CCCCO , field viscosity: 3.953

Form field viscosity, entry CCCCCCCCO + CCO : 3.441

Measured viscosity of CCCCCCCCO + CCCO : 3.663

Documented viscosity of CCCCCCCCO + CO : 3.189

###

- Run description: xn = mol fraction of the nth substance listed
- Test parameters: 298.15 K; 101 kPa; x2 = 0.95
Kindly supply the reported viscosity values for the records listed here.
Reply with just the number (in mPa·s).

The reported viscosity of the molecule CCCCCCCCO + CCO was 1.255

The molecule listed as CCCCCCCCO + CCCCO shows viscosity equal to 2.693

viscosity measured on CCCCCCCCO + CO = 0.7018

Summary for this molecule, CCCCCCCCO + CCCO : viscosity is 2.065
